FYI, the data here is from patent US6162811A.

Test system: KB-A1 (multi-drug resistant line induced by adriamycin)
experiment notes: In vitro cytotoxicity, Microculture Tetrazolium Assay, KB-A1 (adriamycin-resistant)
Type: cell-based
condition info: Homo sapiens, KB-A1, 96 h
readout: IC50 (µM)
Numbers only here, please. The scale is µM.

Which IC50 reading was recorded for the compound COc1cccc2c1C(=O)c1c(O)c3c(c(O)c1C2=O)C[C@@](O)(C(=O)CO)C[C@@H]3O[C@H]1C[C@H](N)[C@H](O)[C@H](C)O1 [ADR, adriamycin, reference compound] ?
6.69
